target: human FPR2 (Homo sapiens (Human), UniProt P25090); test: FPR2 cyclic adenosine monophosphate (cAMP) assay; conditions: CHO cells overexpressing human FPR2; forskolin 5 µM; inhibition of cAMP production; read-out: hFPR2 cAMP2 EC50
Sequence (P25090 whole entry): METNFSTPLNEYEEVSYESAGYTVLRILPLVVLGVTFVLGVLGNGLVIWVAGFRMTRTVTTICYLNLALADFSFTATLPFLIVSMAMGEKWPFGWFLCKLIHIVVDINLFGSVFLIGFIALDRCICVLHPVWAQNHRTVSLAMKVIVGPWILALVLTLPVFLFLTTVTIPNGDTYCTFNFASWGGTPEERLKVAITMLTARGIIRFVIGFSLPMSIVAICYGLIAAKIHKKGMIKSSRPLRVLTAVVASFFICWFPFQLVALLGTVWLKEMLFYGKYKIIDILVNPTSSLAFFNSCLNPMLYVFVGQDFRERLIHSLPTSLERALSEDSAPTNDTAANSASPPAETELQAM
Recorded EC50 by entry
Lab book: enter the figure in nM, no units written.

Check out these entries, answers already filled in.
Molecule: COc1cc(F)c([C@@H]2CN(c3nc(N4CCN(C)CC4)ccc3F)C(=O)[C@H]2NC(=O)c2ccc(OC(F)F)cc2)c(F)c1 [Example 54]
Measurement units: nM
EC50: 1.4

Molecule: COc1cc(F)c([C@@H]2CN(c3nc(N4CCC(O)C4=O)ccc3F)C(=O)[C@H]2NC(=O)c2ccc(OC(F)F)cc2)c(F)c1 (stereo partly drawn) [Example 199]
Measurement units: nM
EC50: 5.2

Molecule: COc1cc(F)c([C@@H]2CN(c3cccn(C4COC4)c3=O)C(=O)[C@H]2NC(=O)c2ccc(OC(F)F)cc2)c(F)c1 [Example 304]
Measurement units: nM
EC50: 9.6

Molecule: COCCOc1ncccc1N1C[C@@H](c2c(F)cc(OC)cc2F)[C@H](NC(=O)c2ccc(OC(F)(F)F)cc2)C1=O [Example 408]
Measurement units: nM
EC50: 3.5

IN: Param item = COc1cc(F)c([C@@H]2CN(c3nccc(NCC(=O)NC4CC4)c3C(F)(F)F)C(=O)[C@H]2NC(=O)c2ccc(Cl)cc2)c(F)c1 [Example 281] ; retrieve measured EC50.
OUT: 8.2

IN: // returns reported EC50 for input COCCn1cccc(N2C[C@@H](c3ccc(OC)cc3F)[C@H](NC(=O)c3ccc(OC(F)(F)F)cc3)C2=O)c1=O [Example 53]
OUT: 1.4

----------
biological target: human FPR2 (Homo sapiens (Human), UniProt P25090); experiment: FPR2 cyclic adenosine monophosphate (cAMP) assay; conditions: CHO cells overexpressing human FPR2; forskolin 5 µM; inhibition of cAMP production; read-out: hFPR2 cAMP2 EC50
This listing pairs compounds with measured EC50.
Numbers only here, please. The scale is nM.

Below: 2 compounds and their reported EC50.
Compound: COc1ccc([C@@H]2CN(c3c(C)ccn(CCC(F)(F)F)c3=O)C(=O)[C@H]2NC(=O)c2ccc(OC(F)F)cc2)c(F)c1
EC50 / nM: 2.8
--
Compound: COc1cc(F)c([C@@H]2CN(c3c(C)ccn(CC(OC)C(F)(F)F)c3=O)C(=O)[C@H]2NC(=O)c2ccc(OC(F)F)cc2)c(F)c1 (stereo partly drawn)
EC50 / nM: 10

IN: So what does the record say about EC50 for COCC(CO)n1cccc(N2C(=O)[C@@H](NC(=O)c3ccc(OC(F)(F)F)cc3)[C@H](c3c(F)cc(OC)cc3F)[C@@H]2C)c1=O (stereo partly drawn) [Example 175] ?
OUT: 4.6

----------
molecular target: human FPR2 (Homo sapiens (Human), UniProt P25090); experiment: FPR2 cyclic adenosine monophosphate (cAMP) assay; settings: CHO cells overexpressing human FPR2; forskolin 5 µM; inhibition of cAMP production; read-out: hFPR2 cAMP2 EC50
Attribute measured: EC50 (nM)
Reply numerically in nM, unit not repeated.

Solved entries (count: 2):
Chemical smiles: COc1cc(F)c([C@@H]2CN(c3cccn(CC4CC4)c3=O)C(=O)[C@H]2NC(=O)c2ccc(OC(F)(F)F)cc2)c(F)c1
Experimental target: human FPR2 (Homo sapiens (Human), UniProt P25090)
Value reported: 7.8

Chemical smiles: COc1cc(F)c([C@@H]2CN(c3nc(N4C[C@H]5C[C@@H]4CN5C)ccc3F)C(=O)[C@H]2NC(=O)c2ccc(OC(F)F)cc2)c(F)c1
Experimental target: human FPR2 (Homo sapiens (Human), UniProt P25090)
Value reported: 1.2

Query compound follows.
IN: I have this compound here, COc1cc(F)c([C@@H]2CN(c3cn(C)nc3OC)C(=O)[C@H]2NC(=O)c2ccc(OC(F)(F)F)cc2)c(F)c1 , and I need its recorded EC50.
OUT: 10

Hello, the source for this data is patent US20230348426A1, in case you need it.
